Cited source: patent US12310967B2

# Test system: primary astrocytes
# method-summary: Extracellular lactate quantification
# Type: cell-based, mouse
# cond: Appendix I, secondary screening: extracellular lactate
# Procedure: Secretion of L-lactate was determined in the extracellular medium of 96-well plated astrocytes after 90 min stimulation (at 37° C., in 5% CO2/95% air conditions) with the drug of interest. […] Levels of lactate secreted by astrocytes were measured in the extracellular medium at 90 min after stimulation with hits (molecules) from the CDC54K library.
readout-type: Score_LACTATE

1) FC(F)(F)c1cccc(CNc2ncnc3sccc23)c1 [T5346988]
0.9327
2) CNC(=O)C1CCCN(c2ncnc3oc(C)c(C)c23)C1 (centres unmarked) [F228-0541]
0
3) Cc1ccccc1NS(=O)(=O)c1ccc2onc(C(=O)N3CCCCC3)c2c1 [L995-0405]
0
4) CCOc1ccc(C2(O)C[N+](c3ccccc3OC)=C3CCCCN32)cc1 (centres unmarked) [K404-0673]
2.024
5) Cc1nc(N2CCCC(C(=O)NCc3cccnc3)C2)c2c(C)c(C)oc2n1 (centres unmarked) [F228-0856]
0
6) Cc1cccc([N+]2=C3CCCCN3C(O)(c3ccc(Cl)cc3)C2)c1 (centres unmarked) [K404-0800]
0.8385
7) CCc1ccc(C2(O)C[N+](c3ccccc3OC)=C3CCCCN32)cc1 (centres unmarked) [K404-0672]
1.356
8) CCNC(=O)C1CCCN(c2ncnc3oc(C)c(C)c23)C1 (centres unmarked) [F228-0534]
0.3387
9) c1ccc2c(c1)CN(c1ncnc3sccc13)CCN2 [T6768300]
0
10) CC(=O)c1cccc(NC(=O)C(C)Sc2ncnc3ccsc23)c1 (centres unmarked) [T5627721]
0.9487
11) O=S(=O)(NC1CCN(c2ncnc3c2CCC3)C1)c1ccccc1 (centres unmarked) [T636-1250]
0.8982
12) Cc1oc2ncnc(N3CCCC(C(=O)NCc4ccccn4)C3)c2c1C (centres unmarked) [F228-0350]
1.023
13) O=S(=O)(NC1CCCC1)c1cc(-c2noc(C3CCC3)n2)cs1 [L287-1221]
0.6602
14) CCn1nccc1-c1csc(S(=O)(=O)Nc2cc(C)ccc2C)c1 [L924-0988]
0.6139
15) CC(=O)N1CCCc2cc(S(=O)(=O)NCc3cccc(C(F)(F)F)c3)ccc21 [T6099519]
0
16) Cc1cc(S(=O)(=O)NCc2ccncc2)c(Cl)cc1Cl [T5581430]
0
17) COc1ccccc1Nc1nc(N2CCOCC2)c2ccccc2n1 [F3007-0009]
0
18) COc1ccccc1[N+]1=C2CCCCCN2C(O)(c2ccc(C)cc2)C1 (centres unmarked) [K404-0834]
1.613
19) COc1ccc(Cl)cc1S(=O)(=O)NCc1ccncc1 [F0376-0203]
0
20) COc1ccccc1[N+]1=C2CCCCCN2C(O)(c2cccc([N+](=O)[O-])c2)C1 (centres unmarked) [K404-0842]
0
